- Test System: chimeric P2X7/1 receptor 279–285 (left flipper) (Homo sapiens, UniProt Q99572, DEL279-281/I21V/M24R/N16P/N25R/N284E/Q22R/R20V/S23N/T19I/T282Y/T283E/V285K/Y26L)
- Construct: expressed in transfected cells; host or cells: Xenopus laevis oocytes (cRNA injection)
- Run Description: Two-electrode voltage clamp of ATP-evoked currents in Xenopus oocytes
- Format: cell-based
- Condition Description: chimera 279–285; inhibition of EC90 ATP response
Readout Name: IC50
Include the unit right after the number.

[
  {
    "Compound": "Cl.Clc1cccc(-c2nnnn2Cc2cccnc2)c1Cl.O [A438079]",
    "Readout Name": "IC50",
    "Reported Result": "31.6 µM"
  }
]

Now look at this one.
Consider the compound COc1ccc(CC(=O)NC(N=C(NC#N)Nc2cccc3ncccc23)C(C)(C)C)cc1OC (centres unmarked) [A740003] and give its measured IC50.
0.631 µM

---

I'd be grateful if you could share measured pIC50 for these entries.
- Test System: P2X7R point mutant T90V (Homo sapiens, UniProt Q99572, I21V/M24R/N16P/N25R/Q22R/R20V/S23N/T19I/T90V/Y26L)
- Run Description: Two-electrode voltage clamp of ATP-evoked currents in Xenopus oocytes
- Condition Description: EC90 ATP, mean ± S.E.M.
Answers are plain numbers, as −log10 of the molar value.

[
  {
    "Molecule": "Cl.Clc1cccc(-c2nnnn2Cc2cccnc2)c1Cl.O",
    "Readout Name": "pIC50",
    "Reported Result": 5.30
  }
]

Continue with the molecule presented below.
Item under review: COc1ccc(CC(=O)NC(N=C(NC#N)Nc2cccc3ncccc23)C(C)(C)C)cc1OC (centres unmarked) . Reported pIC50?
6.40

---

- Test System: chimeric P2X7/1 receptor 295–310 (Homo sapiens, UniProt Q99572, E305N/I21V/I310F/K297R/K300V/K306Y/M24R/N16P/N25R/N303G/Q22R/R20V/S23N/T19I/T308H/V304T/Y26L/Y295F/Y298H/Y299F)
- Run Description: cell-based
Readout Name: pIC50
Give bare numbers, as −log10 of the molar value.

[
  {
    "Molecule": "COc1ccc(CC(=O)NC(N=C(NC#N)Nc2cccc3ncccc23)C(C)(C)C)cc1OC (centres unmarked)",
    "pIC50": 6.30
  }
]

Moving on to the next molecule.
Reported pIC50, molecule `Cl.Clc1cccc(-c2nnnn2Cc2cccnc2)c1Cl.O` : ____
5.00

---

Give measured IC50 for each item. Keep answers brief.
- Test System: P2X7R point mutant Y298A (Homo sapiens, UniProt Q99572, I21V/M24R/N16P/N25R/Q22R/R20V/S23N/T19I/Y26L/Y298A)
- Sequence (Q99572 1-595 N16P/T19I/R20V/I21V/Q22R/S23N/M24R/N25R/Y26L/Y298A): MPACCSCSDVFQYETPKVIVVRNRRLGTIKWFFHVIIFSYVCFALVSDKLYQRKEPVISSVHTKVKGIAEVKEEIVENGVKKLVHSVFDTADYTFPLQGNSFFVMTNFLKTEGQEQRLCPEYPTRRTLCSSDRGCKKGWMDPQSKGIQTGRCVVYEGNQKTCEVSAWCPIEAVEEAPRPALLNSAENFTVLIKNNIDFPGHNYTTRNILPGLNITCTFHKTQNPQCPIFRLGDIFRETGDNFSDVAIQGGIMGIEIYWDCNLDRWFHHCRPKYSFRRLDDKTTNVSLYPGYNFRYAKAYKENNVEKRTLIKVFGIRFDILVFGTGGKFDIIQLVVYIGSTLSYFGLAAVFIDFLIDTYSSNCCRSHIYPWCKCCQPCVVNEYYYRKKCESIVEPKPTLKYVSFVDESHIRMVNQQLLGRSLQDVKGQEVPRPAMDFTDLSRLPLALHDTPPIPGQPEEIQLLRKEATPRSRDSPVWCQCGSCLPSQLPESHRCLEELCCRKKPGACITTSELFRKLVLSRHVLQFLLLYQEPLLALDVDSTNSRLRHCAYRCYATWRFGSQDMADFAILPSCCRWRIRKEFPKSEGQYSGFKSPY
- Run Description: cell-based

[
  {
    "Compound": "Cl.Clc1cccc(-c2nnnn2Cc2cccnc2)c1Cl.O [A438079]",
    "IC50": "6.31 µM"
  }
]

Please find the next compound below.
For COc1ccc(CC(=O)NC(N=C(NC#N)Nc2cccc3ncccc23)C(C)(C)C)cc1OC (centres unmarked) [A740003] , what is its reported IC50?
2 µM
